Give pIC50 for every item shown.
Test system: T78-1
Experiment: In vitro cytotoxicity against Chinese hamster V79-derived cell line T78-1 transfected with Escherichia coli B nitroreductase (NTR)
Type: functional, cell-based
Details: Cricetulus griseus
Reminder that pIC50 means the negative base-10 logarithm of the concentration expressed in mol/L.

Query block: Consider the compound "O=C(OCc1ccccc1[N+](=O)[O-])N1c2ccccc2[C@@]23O[C@]24CCC[C@H]3C#C/C=C\C#C[C@H]14" and give its measured pIC50.
Result block: 5.05

Query block: Consider the compound "O=C(OCc1ccc([N+](=O)[O-])cc1)N1c2ccc(OCCO)cc2[C@@]23O[C@]24CCC[C@H]3C#C/C=C\C#C[C@H]14" and give its measured pIC50.
Result block: 5.62

Query block: Consider the compound "O=C(OCc1ccc([N+](=O)[O-])cc1)N1c2ccccc2[C@@]23O[C@]24CCC[C@H]3C#C/C=C\C#C[C@H]14" and give its measured pIC50.
Result block: 4.95
